# study_target: GPR40 (Homo sapiens, UniProt O14842)
# Sequence (O14842 whole entry): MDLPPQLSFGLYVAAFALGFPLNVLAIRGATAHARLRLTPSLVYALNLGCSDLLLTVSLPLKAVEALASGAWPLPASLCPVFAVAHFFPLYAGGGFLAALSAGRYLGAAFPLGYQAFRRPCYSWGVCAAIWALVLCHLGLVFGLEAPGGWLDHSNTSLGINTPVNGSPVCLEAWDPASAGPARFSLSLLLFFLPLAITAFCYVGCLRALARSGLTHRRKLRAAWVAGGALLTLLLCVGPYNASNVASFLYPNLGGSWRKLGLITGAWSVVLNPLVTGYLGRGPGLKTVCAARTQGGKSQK
# experimental_details: Cell-based aequorin assay (CHO cells stably expressing GPR40 and aequorin)
# Set-up: expressed in transfected cells; host or cells: CHO cells stably transfected with GPR40 and aequorin
# setup_conditions: activation of human GPR40, CHO cells, 0.01% HSA
pEC50: −log10 of the molar value.
Provide the reported pEC50 of each item.

Query CCCCOc1cc(COc2cccc(C(CC)CC(=O)O)c2)ccc1-c1cccc(OC)c1 (single isomer, unassigned) [Example 65.2] yields pEC50 of 6.00 to 7.00

Query COc1cccc(-c2ccc(COc3cccc(C(CC(=O)O)C4CCC4)c3)cc2C2CCCCCC2)c1 (single isomer, unassigned) [Example 79.8] yields pEC50 of 6.00 to 7.00

Query CCC(CC(=O)O)c1ccc(F)c(OCc2ccc(-c3cc(OC)ccc3F)c(C(C)(C)C)c2)c1 (single isomer, unassigned) [Example 86.2] yields pEC50 of 5.00 to 6.00

* * *

# study_target: GPR40 (Homo sapiens)
# experimental_details: Cell-based aequorin assay (CHO cells stably expressing GPR40 and aequorin)
# Design: expressed in transfected cells; host or cells: CHO cells stably transfected with GPR40 and aequorin
# setup_conditions: activation of human GPR40, CHO cells, 0.01% HSA
Provide the reported EC50 of each item.

Query CCC[C@H](CC(=O)O)c1cccc(OCc2ccc(-c3cccc(OC)c3)c(C(C)(C)C)c2)c1 (single isomer, unassigned) [Example 33] yields EC50 of 0.1 to 1 µM

Query COc1ccc(F)c(-c2ccc(COc3cccc([C@@H](CC(=O)O)[C@@H]4C[C@H]4C)c3)cc2C(C)(C)C)c1 (single isomer, unassigned) [Example 93.1] yields EC50 of 0.1 to 1 µM

Query COc1ccc(F)c(-c2ccc(COc3cccc([C@@H](CC(=O)O)[C@@H]4C[C@H]4C)c3)cc2C2=CCCC2(C)C)c1 (single isomer, unassigned) [Example 93.2] yields EC50 of 0.1 to 1 µM

Query COc1ccc(F)c(-c2ccc(COc3cccc(C(CC(=O)O)CC4CC4)c3)cc2C(C)(C)C)c1 (single isomer, unassigned) [Example 69.4] yields EC50 of 0.1 to 1 µM

Query CC1(C)CCC[C@@H]1c1cc(COc2cccc([C@@H](CC(=O)O)C3CC3)c2)ccc1-c1cc(OC(F)(F)F)ccc1F (single isomer, unassigned) [Example 66.29] yields EC50 of 0.1 to 1 µM

Query COc1cc(-c2ccc(COc3cccc(C(CC(=O)O)C4CC4)c3)cc2C2CCCC2(C)C)c(F)cn1 (single isomer, unassigned) [Example 66.36] yields EC50 of 0.01 to 0.1 µM

Query CC1(C)CCC[C@@H]1c1cc(COc2cccc([C@@H](CC(=O)O)C3CC3)c2F)ccc1-c1cc(F)ccc1F (single isomer, unassigned) [Example 83.25] yields EC50 of 0.1 to 1 µM

Query C=C(C)[C@@H](CC(=O)O)c1cccc(OCc2ccc(-c3cc(OC)ccc3F)c(C(C)(C)C)c2)c1 (single isomer, unassigned) [Example 48] yields EC50 of 1 to 10 µM

Query CCC[C@H](CC(=O)O)c1cccc(OCc2ccc(-c3ccccc3F)c(C(C)(C)C)c2)c1 (single isomer, unassigned) [Example 67.18] yields EC50 of 1 to 10 µM

Query COc1ccc(F)c(-c2ccc(COc3cccc(C4(CC(=O)O)CCCCC4)c3)cc2C(C)(C)C)c1 [Example 105.2] yields EC50 of 1 to 10 µM

Query CCCCCc1cc(COc2cccc(C(C)CC(=O)O)c2)ccc1-c1cc(OC)ccc1F (single isomer, unassigned) [Example 64.14] yields EC50 of 0.1 to 1 µM

Query COc1ccc(F)c(-c2ccc(COc3cccc(C(C)CC(=O)O)c3)cc2C2=CCC(C(C)(C)C)CC2)c1 (single isomer, unassigned) [Example 64.13] yields EC50 of 0.1 to 1 µM

Query COc1ccc(F)c(-c2ccc(COc3cccc([C@@H](CC(=O)O)C4CC4)c3F)cc2[C@@H](OC)C2(C)CC2)c1 (single isomer, unassigned) [Example 83.22] yields EC50 of 0.01 to 0.1 µM

Query COc1ccc(F)c(-c2ccc(COc3cccc(C(CC(=O)O)C4CC4)c3F)cc2C2CCCC2(C)C)c1 (single isomer, unassigned) [Example 83.17] yields EC50 of 0.1 to 1 µM

Query COc1ccc(F)c(-c2ccc(COc3cccc(C(CC(=O)O)C4CC4)c3F)cc2C2=CCCC2(C)C)c1 (single isomer, unassigned) [Example 83.14] yields EC50 of 0.1 to 1 µM

Query COc1cccc(-c2ccc(COc3cccc(C(CC(=O)O)C4CC4)c3)cc2C2CCCC2(C)C)c1 (single isomer, unassigned) [Example 66.7] yields EC50 of 0.1 to 1 µM

Query COc1ccc(F)c(-c2ccc(COc3cccc([C@@H](CC(=O)O)CC4CC4)c3)cc2[C@@H]2OCCC2(C)C)c1 (single isomer, unassigned) [Example 69.43] yields EC50 of 1 to 10 µM

Query COc1ccc(F)c(-c2ccc(COc3cccc(C(CC(=O)O)CC4CC4)c3)cc2CN2CCCCCC2)c1 (single isomer, unassigned) [Example 69.48] yields EC50 of 1 to 10 µM

Query C=CC1(c2cc(COc3cccc([C@@H](CC(=O)O)C4CC4)c3)ccc2-c2cc(OC)ncc2F)CCCC1 (single isomer, unassigned) [Example 66.67] yields EC50 of 0.1 to 1 µM

Query C=CC(C)(C)[C@H](OC)c1cc(COc2cccc([C@H](CCC)CC(=O)O)c2)ccc1-c1cc(OC)ccc1F (single isomer, unassigned) [Example 67.24] yields EC50 of 0.1 to 1 µM

Query COc1cc(-c2ccc(COc3cc(F)cc(C(CC(=O)O)CC4CC4)c3)cc2C2CCCC2(C)C)c(F)cn1 (single isomer, unassigned) [Example 89.4] yields EC50 of 0.1 to 1 µM

Query CCC(CC(=O)O)c1cccc(OCc2cc(C3CCCC3(C)C)c(-c3cc(OC)ccc3F)cc2F)c1F (single isomer, unassigned) [Example 77.6] yields EC50 of 0.1 to 1 µM

Query COc1ccc(F)c(-c2ccc(COc3cccc([C@@H](CC(=O)O)C4CC4)c3F)cc2[C@H](OC)C2(C)CC2)c1 (single isomer, unassigned) [Example 83.31] yields EC50 of 1 to 10 µM

* * *

Provide the reported EC50 of each item.
# study_target: GPR40 (Homo sapiens, UniProt O14842)
# experimental_details: Inositol phosphate accumulation assay (A9_GPR40 cells)
# Assay type: cell-based
# Parameters: expressed in transfected cells; host or cells: CHO cells stably transfected with GPR40 and aequorin
# setup_conditions: inositol phosphate assay, A9_GPR40 cells, 1 hour; read-out: IP3 EC50

Query CCOc1ccc(F)c(-c2ccc(COc3cccc(C(CC(=O)O)C4CC4)c3)cc2C2CCCC2(C)C)c1 (single isomer, unassigned) [Example 66.26] yields EC50 of 10 to 100 nM

Query COc1ccc(F)c(-c2ccc(COc3cccc([C@@H](CC(=O)O)CC4CC4)c3)cc2[C@H]2OCCC2(C)C)c1 (single isomer, unassigned) [Example 69.44] yields EC50 of 10 to 100 nM

Query C=CC[C@H](CC(=O)O)c1cccc(OCc2ccc(-c3cc(OC)ccc3F)c(C(C)(C)C)c2)c1 (single isomer, unassigned) [Example 51] yields EC50 of 100 to 1000 nM

Query COc1cc(-c2ccc(COc3cccc([C@@H](CC(=O)O)C4CC4)c3)cc2C2=CCCC2(C)C)c(F)cn1 (single isomer, unassigned) [Example 66.12] yields EC50 of 10 to 100 nM

Query COc1ccc(F)c(-c2ccc(COc3cccc(C(C)CC(=O)O)c3)cc2C2=CCC(C)(C)CC2)c1 (single isomer, unassigned) [Example 64.5] yields EC50 of 10 to 100 nM

Query CCC(C)(CC(=O)O)c1cccc(OCc2ccc(-c3cc(OC)ccc3F)c([C@@H]3CCCC3(C)C)c2)c1 (single isomer, unassigned) [Example 103] yields EC50 of 10 to 100 nM

Query COc1ccc(F)c(-c2ccc(COc3cccc(C(C)CC(=O)O)c3)cc2/C=C/C(C)(C)C)c1 (single isomer, unassigned) [Example 64.4] yields EC50 of 10 to 100 nM

Query COc1cccc(-c2ccc(COc3cccc([C@@H](CC(=O)O)C4CC4)c3)cc2C(C)(C)C)c1 (single isomer, unassigned) [Example 12] yields EC50 of 100 to 1000 nM

Query C=C(c1cc(COc2cccc([C@@H](CC(=O)O)CC3CC3)c2)ccc1-c1cc(OC)ccc1F)C(C)(C)C (single isomer, unassigned) [Example 69.15] yields EC50 of 10 to 100 nM

Query COc1ccc(F)c(-c2ccc(COc3cccc([C@@H](CC(=O)O)C4CC4)c3)cc2C2N(C)CCCC2(C)C)c1 (single isomer, unassigned) [Example 66.40] yields EC50 of 10 to 100 nM

Query COc1ccc(F)c(-c2cc(F)c(COc3cccc([C@@H](CC(=O)O)C4CC4)c3)cc2C2=CCCC2(C)C)c1 (single isomer, unassigned) [Example 66.43] yields EC50 of < 10 nM

Query CCCCOc1cc(COc2cccc([C@H](C)CC(=O)O)c2)ccc1-c1cc(OC)ccc1F (single isomer, unassigned) [Example 5] yields EC50 of 100 to 1000 nM
